Experiment: Clearance in Swiss Webster mouse at 10 mg/kg, iv
Settings: in vivo
readout-label: clearance (mL/min/kg)

                      smiles_representation  readout_label  unit_text  quantitative_readout
0  CC1(C)CC(=O)c2c(C(F)(F)F)nn(-c3ccc(C(N)=O)c(N[C@H]4CC[C@H](OC(=O)CN)CC4)c3)c2C1.CS(=O)(=O)O      clearance  mL/min/kg                  34.2

====

Experiment: Tmax in Swiss Webster mouse at 10 mg/kg, po
Format: ADME, organism-based
Parameters: dose 10 mg/kg, route oral
Conditions: in vivo
readout-label: Tmax (h)

In [3]: df
Out[3]:
                      smiles_representation  quantitative_readout
0  CC1(C)CC(=O)c2c(C(F)(F)F)nn(-c3ccc(C(N)=O)c(N[C@H]4CC[C@H](OC(=O)CN)CC4)c3)c2C1.CS(=O)(=O)O                     1
